System: HDLM-2;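 note: cell viability assay measuring suppression of HDLM-2 proliferation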
Test: cells
Assay type: functional, cell-based, Homo sapiens
Settings: Homo sapiens, HDLM-2
Description: SANGER: Inhibition of human HDLM-2 cell growth in a cell viability assay.
pIC50: −log10 of the molar value.
Entries annotated with measured pIC50

Guide cases for pIC50, answers given:
Query: Requested field: pIC50. Item: CC(C)CCN1c2nc(Nc3cc(F)c(O)c(F)c3)ncc2N(C)C(=O)C1C (centres undefined)
Reply: < 5.30

Query: # iterate: "COc1cc(-c2nn([C@H]3CC[C@H](N4CCN(C(C)=O)CC4)CC3)c3ncnc(N)c23)ccc1NC(=O)c1cc2ccccc2n1C"
Reply: < 5.29

Query: What about CC[C@H](CO)Nc1nc(NCc2ccccc2)c2ncn(C(C)C)c2n1 [SELICICLIB] ?
Reply: < 4.80

Kindly review the next compound as well.
Query: Fill in the blank: the reported pIC50 of Cc1cn(-c2cc(NC(=O)c3ccc(C)c(Nc4nccc(-c5cccnc5)n4)c3)cc(C(F)(F)F)c2)cn1 [NILOTINIB] is ____.
Reply: < 5.70

----------
# IC50 per entry
Test system: SK-N-DZ
Assay: cells
Assay type: functional, cell-based, Homo sapiens
Conditions: Homo sapiens, SK-N-DZ
Description: SANGER: Inhibition of human SK-N-DZ cell growth in a cell viability assay.

Query: IC50 of "CCC/C=C/C=C/C(=O)O[C@H]1/C(=C/C(=O)OC)C[C@H]2C[C@H]([C@@H](C)O)OC(=O)C[C@H](O)C[C@@H]3C[C@H](OC(C)=O)C(C)(C)[C@](O)(C[C@@H]4C/C(=C/C(=O)OC)C[C@H](/C=C/C(C)(C)[C@]1(O)O2)O4)O3" on SK-N-DZ?
Reply: > 8 nM

Query: Now give it for "CO[C@H]1C[C@@H]2CC[C@@H](C)[C@@](O)(O2)C(=O)C(=O)N2CCCC[C@H]2C(=O)O[C@H]([C@H](C)C[C@@H]2CC[C@@H](OC(=O)C(C)(CO)CO)[C@H](OC)C2)CC(=O)[C@H](C)/C=C(\C)[C@@H](O)[C@@H](OC)C(=O)[C@H](C)C[C@H](C)/C=C/C=C/C=C/1C" too.
Reply: > 200 nM

Query: Repeat for the following compound: COc1cc2ncn(-c3cc(OCc4ccccc4S(C)(=O)=O)c(C#N)s3)c2cc1OC [GSK-319347A]
Reply: > 5000 nM

As a next step, examine the compound that follows.
Query: Checklist item: IC50 tested on SK-N-DZ, entry "COc1cccc2c1C(=O)c1c(O)c3c(c(O)c1C2=O)C[C@@](O)(C(=O)CO)C[C@@H]3O[C@H]1C[C@H](N)[C@H](O)[C@H](C)O1" , value?;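 note: growth inhibition of the cancer cell line, read out through a viability assay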
Reply: > 1020 nM

----------
Test system: MKN-28;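 note: cell viability assay read-out, IC50 reflects suppression of growth of human MKN-28 cells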
Test: cells
Format: functional, cell-based, Homo sapiens
Settings: Homo sapiens, MKN-28
Description: SANGER: Inhibition of human MKN28 cell growth in a cell viability assay.
pIC50: −log10 of the molar value.
The entries below come with measured pIC50 values attached.

Answered cases to consult:
Query: // returns reported pIC50 for input "CCN(CC)CCCCNc1ncc2cc(-c3cc(OC)cc(OC)c3)c(NC(=O)NC(C)(C)C)nc2n1"
Reply: < 5.70

Query: Proceed to "Nc1ccn([C@@H]2O[C@H](CO)[C@@H](O)C2(F)F)c(=O)n1"
Reply: < 5.99

Further cases:
Query: Requested read-out: pIC50. Entry: "N#Cc1c(O)c2c(-c3ccc(-c4ccccc4O)cc3)csc2[nH]c1=O"
Reply: < 5.99
